- test_target: SARS-CoV-2 NSP3 Mac1 (Severe acute respiratory syndrome coronavirus 2, UniProt P0DTD1)
- Format: binding
- condition_details: ligand occupancy after refinement (phenix.refine); crystal soaking of Mac1

| molecule | Refined occupancy |
| --- | --- |
| CC(O)CNc1cc(N2CC3(CCC3)C(F)(C(=O)O)C2)ncn1 (centres unmarked) | 36 |
| O=C(O)[C@@H]1CCCN(C(=O)c2ccnc3[nH]ccc23)C1 | 16 |
| CN(CCCC(=O)O)C(=O)c1ncnc2[nH]ccc12 | 24 |
| O=C(O)C1(F)CN(c2ncnc3[nH]c4cc(Br)ccc4c23)CC12CCC2 (centres unmarked) | 16 |
| Nc1cc(NC(=O)NC2CC2)ccc1C(=O)NC1c2cccc(O)c2CC1C(=O)O (centres unmarked) | 50 |

====

Catalogue of DSF max dTma readings, one per entry.
- test_target: SARS-CoV-2 NSP3 Mac1 (Severe acute respiratory syndrome coronavirus 2, UniProt P0DTD1)
- Assay type: binding
- Design: contains a conserved macrodomain enzyme (Mac1)
- condition_details: maximal thermal upshift vs DMSO control

| molecule | DSF max dTma, °C |
| --- | --- |
| Cc1cc(-n2cncn2)ccc1C(=O)OCC1OCCc2ccccc21 (centres unmarked) | 0.63 |
| COc1ccc(-c2nnc(NC(=O)Cc3ncccc3F)s2)cc1 | 0.58 |
| O=C(Nc1cccnc1)Nc1ccc2ccccc2n1 | 0.06 |
| Cc1ccccc1CNc1ncnc(-c2ccccc2)n1 | 0.85 |
| CS(=O)(=O)C1CCCCN(c2ncnc3[nH]c4ccccc4c23)C1 (centres unmarked) | 0.24 |
| Cc1ccccc1CC(C)c1nc(-c2cc(N)ncn2)no1 (centres unmarked) | 0.98 |
| O=C(c1c(F)ccc(O)c1F)N1CCC(Oc2cccc(F)c2)C1 (centres unmarked) | 0.07 |
| Cc1nc(S(=O)(=O)NCc2ccc(-c3ccncc3)cc2)cn1C | 0.35 |
| CC1c2ccc(F)cc2CCN1C(=O)c1cccc(O)c1 (centres unmarked) | 0 |
| Clc1cc2c(N3CCCC(c4cccnc4)C3)ncnc2[nH]1 (centres unmarked) | 0.25 |
| O=C(c1cccc(O)c1)N1CC=C(c2ccccc2)C1 | 0.71 |

====

- test_target: UniProt P0DTD1
- Assay type: binding
- condition_details: PanDDA event map 1-BDC; crystal soak, Compound_concentration 100 mM; PanDDA run dmso_34 or nohits_35 per dataset

| molecule | 1-BDC |
| --- | --- |
| O=S1(=O)CCCC(Nc2ncnc3[nH]ccc23)C1 (stereo not drawn) | 0.13 |
| O=C(O)C1(F)CN(c2ncnc3[nH]c4cc(F)ccc4c23)CC1C1CC1 (stereo not drawn) | 0.1 |
| O=C(O)[C@@H]1[C@@H]2CCN(c3ncnc4[nH]c5cc(F)ccc5c34)C[C@@H]21 | 0.17 |
| CC1(C)CN(c2ncnc3[nH]c4ccccc4c23)CC(CC(=O)O)O1 (stereo not drawn) | 0.04 |
| O=C(Nc1ccc(C(=O)NC2c3cccc(O)c3CC2C(=O)O)c(Cl)c1)NC1CC1 (stereo not drawn) | 0.22 |
| O=C(O)CCC1CN(c2ncnc3[nH]c4cc(F)ccc4c23)CCO1 (stereo not drawn) | 0.15 |
| O=C(O)CC1CCN(c2ncnc3[nH]c4ccccc4c23)CCC1(F)F (stereo not drawn) | 0.07 |
| O[C@H]1CCCC[C@H]1Nc1ncnc2[nH]ccc12 (relative stereo) | 0.13 |
| Nc1cc(NC(=O)NC2CC2)ccc1C(=O)NC1c2cccc(O)c2CC1C(=O)O (stereo not drawn) | 0.25 |
| Cl.O=C(O)C1CN(c2ncnc3[nH]c4cc(F)ccc4c23)CCO1 (stereo not drawn) | 0.15 |
| O=C(O)C1CN(c2ncnc3[nH]c4cc(F)ccc4c23)CC12CCC2 (stereo not drawn) | 0.13 |
| O=S1(=O)CCC1CNc1ncnc2[nH]c3cc(F)ccc3c12 (stereo not drawn) | 0.07 |
| COC(=O)CC1CN(c2ncnc3[nH]c4cc(F)ccc4c23)CCO1 (stereo not drawn) | 0.11 |
| O=C(O)C(F)(F)F.O=C(O)C1CN(c2ncnc3[nH]c4ccccc4c23)CC12CCC2 (stereo not drawn) | 0.17 |
| O=C(O)CC1CN(c2ncnc3[nH]c4cc(F)ccc4c23)CC2(CCC2)O1 (stereo not drawn) | 0.06 |
| O=C1OCCN1C1CCN(c2ncnc3[nH]c4cc(F)ccc4c23)C1 (stereo not drawn) | 0.06 |
| CS(=O)(=O)NC(=O)C1(F)CN(c2ncnc3[nH]c4cc(F)ccc4c23)CC12CCC2 (stereo not drawn) | 0.2 |
| O[C@@H]1CC[C@H](Nc2ncnc3[nH]c4cc(F)ccc4c23)C1 | 0.07 |

Data origin: paper PMC9926234
